- Test system: NCI/ADR-RES ovarian
- Protocol summary: NCI-60 one-dose screen, 48 h
- Study conditions: 10 µM unless noted
The panel holds about 83,000 compounds, 20% with a hit somewhere; the sample as a whole holds those more often. The source made the active and inactive calls. The calls were made as follows: active = growth percent below 10; inactive = the rest.
Valid outcomes are listed here; reply with one: active, inactive

[ask] What did this assay record as the result for `Cc1nc2c(-c3cnc(N)nc3)nc(N3CCOCC3)nc2n1C(C)C` ?
[reply] active

[ask] What did this assay record as the result for `Fc1cc(-c2nnc3sc(-c4ccc(Cl)cc4)nn23)c(Cl)cc1Cl` ?
[reply] inactive

[ask] What did this assay record as the result for `O=C(CCCCCCc1nc2ccc(Br)cc2[nH]1)NO` ?
[reply] active

[ask] What did this assay record as the result for `CCN(CC)CCCCCCCNc1cc(OC)cc2c(C)ccnc12` ?
[reply] inactive

[ask] What did this assay record as the result for `CCOC(=O)C(=CNc1ccccc1Cl)C(=O)OCC` ?
[reply] inactive

[ask] What did this assay record as the result for CCN(CC)CCC(CNc1ccnc2cc(Cl)ccc12)c1ccc(O)cc1 (stereo unspecified) ?
[reply] inactive

---

- Test system: HOP-62 NSCLC
- Protocol summary: NCI-60 one-dose screen, 48 h
- Study conditions: 10 µM unless noted
About 83,000 compounds went through this panel and 20% of them were active in at least one assay; those are over-represented in the sample as a whole. The source made the active and inactive calls. The calls were made as follows: active = growth percent below 10; inactive = the rest.
Valid outcomes are listed here; reply with one: active, inactive

[ask] What did this assay record as the result for `O=C(NO)c1ccc(NCc2csc3ccccc23)cc1` ?
[reply] inactive

[ask] What did this assay record as the result for `Fc1ccc2c(CN3CCO[C@H](COc4cccc(Cl)c4)C3)c[nH]c2c1` ?
[reply] inactive

[ask] What did this assay record as the result for `Nc1ccc(C(OC(=O)c2cc3ccccc3c(Cc3c(O)c(C(=O)OC(c4ccc(N)cc4)(c4ccc(N)cc4)c4ccc(N)cc4)cc4ccccc34)c2O)(c2ccc(N)cc2)c2ccc(N)cc2)cc1` ?
[reply] active

[ask] What did this assay record as the result for `CC(C)(C)CC(C)(C)NCc1cc(C(C)(C)C)cc(CNC(C)(C)CC(C)(C)C)c1O` ?
[reply] inactive

[ask] What did this assay record as the result for `CC[C@H](Nc1nc(N)nc(C2CC2)c1C#N)c1nc2cccc(NCc3ccc(C(=O)NO)cc3)c2c(=O)n1-c1ccccc1` ?
[reply] active

[ask] What did this assay record as the result for Nc1n[nH]c2ccc([C@@H]3Nc4c(F)cc5[nH]ncc5c4[C@H]4C5CCC(C5)[C@@H]34)cc12 (stereo not given in full) ?
[reply] inactive

[ask] What did this assay record as the result for CC(=O)c1c(O)c(C)c(O)c2c1OC1=CC(=O)/C(=C(/C)N)C(=O)C12C (stereo not given) ?
[reply] inactive

[ask] What did this assay record as the result for `CCCCN(CCCC)CCCN=c1nc2c(c(N)n1-c1ccccc1)c(=S)n(-c1ccccc1)c(=S)n2-c1ccccc1` ?
[reply] active

[ask] What did this assay record as the result for `COc1ccc(/C=c2\c(=O)n(-c3ccccc3)c3nn4c(n23)=NNC42CCCCC2)cc1` ?
[reply] inactive

[ask] What did this assay record as the result for `CC(=O)c1ccc(-n2c(-c3cc(-c4ccsc4)n[nH]3)n[nH]c2=S)cc1` ?
[reply] inactive

[ask] What did this assay record as the result for `CCCc1n(Cc2ccc3ccccc3n2)cc[n+]1Cc1ccc2ccccc2c1` ?
[reply] active

[ask] What did this assay record as the result for `O=C(NNC(=S)Nc1ccccc1)c1ccc(Nc2ncnc3c2cnn3-c2cccc(Br)c2)cc1` ?
[reply] inactive

[ask] What did this assay record as the result for `COc1cc2cc(C(=O)Nc3ccccc3)c(N)nc2cc1OC` ?
[reply] inactive

[ask] What did this assay record as the result for `COc1ccc(Nc2ncccc2C(=O)NCc2cn(Cc3cc(OC)cc(OC)c3)nn2)cc1` ?
[reply] inactive

[ask] What did this assay record as the result for `Cc1cc(C)c2c(n1)sc1c(Nc3ccc(Cl)cc3Cl)ncnc12` ?
[reply] active

[ask] What did this assay record as the result for `Oc1[nH]c2ccc(Cl)cc2c1/C=c1/ccc2c(c1)N=C(c1ccc(F)cc1)N=2` ?
[reply] inactive

[ask] What did this assay record as the result for `O=C(/C=C/c1ccccc1)n1c(-c2ccccc2)nc2ccccc21` ?
[reply] inactive

[ask] What did this assay record as the result for `O=C(Nc1ccc2ncnc(Nc3ccc(F)c(Cl)c3)c2c1)c1cccs1` ?
[reply] inactive

[ask] What did this assay record as the result for N#CC1=C(N)Oc2nc[nH]c(=O)c2C1c1cccs1 (stereo not given) ?
[reply] inactive

[ask] What did this assay record as the result for `COc1ccc(Sc2[nH]c(C=O)c3ccccc23)cc1` ?
[reply] inactive

---

- Test system: LOX IMVI melanoma
- Protocol summary: NCI-60 one-dose screen, 48 h
- Study conditions: 10 µM unless noted
This is part of a sample that, as a whole, favours compounds with a hit. Of some 83,000 tested, about 20% had one in any assay. Active and inactive are the calls of the source. How the source made its calls: active means growth percent below 10; inactive means the rest.
Valid outcomes are listed here; reply with one: active, inactive

[ask] What did this assay record as the result for `Nc1nc2ccc([C@@H]3Nc4ccc5[nH]ncc5c4[C@H]4[C@H]5CCC(C5)[C@H]43)cc2s1` ?
[reply] inactive

[ask] What did this assay record as the result for `Cc1ccc(N=CNN=C(N)N)cc1` ?
[reply] inactive

[ask] What did this assay record as the result for `Cc1ccc(N2C3c4ccccc4N(S(=O)(=O)c4ccc(C)cc4)C2c2ccccc2N3S(=O)(=O)c2ccc(C)cc2)cc1` ?
[reply] inactive

[ask] What did this assay record as the result for `CC(=O)c1ccc(-n2c(-c3cc(-c4ccsc4)n[nH]3)n[nH]c2=S)cc1` ?
[reply] inactive

[ask] What did this assay record as the result for CC1=NC(c2ccc(Cl)cc2)C2=C(N1)/C(=C/c1ccc(Cl)cc1)CCC2 (stereo unspecified) ?
[reply] inactive

[ask] What did this assay record as the result for `CC[C@H](Nc1nc(C)nc(N)c1C#N)c1nc2cccc(NCc3ccc(C(=O)NO)cc3)c2c(=O)n1-c1ccccc1` ?
[reply] active

[ask] What did this assay record as the result for `O=C(Nc1cnc(C(F)(F)F)cn1)c1cc(Cl)ccc1O` ?
[reply] active

[ask] What did this assay record as the result for `O=C1/C(=C\c2cccn2C(=O)c2ccccc2)c2ccccc2N1c1c(Cl)cccc1Cl` ?
[reply] inactive

[ask] What did this assay record as the result for `COc1ccc(NC(=O)/C=C/c2ccc(Cl)c(Cl)c2)cn1` ?
[reply] inactive

[ask] What did this assay record as the result for `COc1ccc(-c2[nH]nc(N)c2-c2cc(OC)c(OC)c(OC)c2)cc1` ?
[reply] inactive

[ask] What did this assay record as the result for CCN(CC)CCCC(C)Nc1cnc(C(=O)Nc2cccc3ccc(OC)nc23)cn1 (stereo unspecified) ?
[reply] active

[ask] What did this assay record as the result for `Cc1ccc(CSCc2ccc(C(=O)NC3CC3)o2)cc1` ?
[reply] inactive

[ask] What did this assay record as the result for `NC(=O)Nc1ccc2ncnc(Nc3cccc(O)c3)c2c1` ?
[reply] inactive

[ask] What did this assay record as the result for O=C1OCC2=C1C(c1ccc(Cl)c(Cl)c1)c1cc3c(cc1N2CCO)CCC3 (stereo unspecified) ?
[reply] inactive

[ask] What did this assay record as the result for `C#CC[C@@H]1C[C@]2(C)[C@H]3CC=C4[C@H]5[C@@H](C)[C@H](C)CC[C@]5(C(=O)NCCCCN)CC[C@@]4(C)[C@]3(C)CC[C@H]2C(C)(C)[C@H]1OC(C)=O` ?
[reply] inactive

[ask] What did this assay record as the result for `COc1ccc(C(=O)c2c(N)nc3n2CCCC3)cc1OC` ?
[reply] inactive

[ask] What did this assay record as the result for `COc1cc(Nc2ccnc3ccc(Br)cc23)cc(OC)c1OC` ?
[reply] inactive

[ask] What did this assay record as the result for `COC(=O)c1cc(Cl)cc([N+](=O)[O-])c1O` ?
[reply] inactive

[ask] What did this assay record as the result for `CC(=O)O[C@H]1[C@H](CC#CC#CC[C@@H]2C[C@]3(C)[C@H]4CC=C5[C@H]6[C@@H](C)[C@H](C)CC[C@]6(C(=O)NCCN(CCN)CCN)CC[C@@]5(C)[C@]4(C)CC[C@H]3C(C)(C)[C@H]2OC(C)=O)C[C@]2(C)[C@H]3CC=C4[C@H]5[C@@H](C)[C@H](C)CC[C@]5(C(=O)NCCN(CCN)CCN)CC[C@@]4(C)[C@]3(C)CC[C@H]2C1(C)C` ?
[reply] inactive

[ask] What did this assay record as the result for `CCOC(=O)NNc1cccc(Cl)c1` ?
[reply] inactive

[ask] What did this assay record as the result for `Cc1cc(Cl)c2ccc(N(C)C)cc2n1` ?
[reply] inactive

---

- System: ACHN renal
- Protocol summary: NCI-60 one-dose screen, 48 h
- Study conditions: 10 µM unless noted
- Procedure: Growth inhibition of the ACHN human tumor cell line is measured as a screen for anti-cancer activity. Cells are grown in 96 well plates and exposed to the test compound for 48 hours. Compounds are tested at a single concentration, which is 10^-5 M for most compounds. The reported endpoint is percent growth (GI% or GIPRCNT), where numbers from 0 - 100% represent growth inhibition, and numbers from -100% - 0 represent cell death. For example, a value of 40 represents 60% growth inhibition. […]
Compounds without any hit were thinned out: in the full panel of roughly 83,000, 20% have a hit. Active and inactive are the calls of the source. How the source made its calls: active means growth percent below 10; inactive means the rest.
Valid outcomes are listed here; reply with one: active, inactive

[ask] What did this assay record as the result for `N=C(N)c1ccc(-c2ccc(-c3cc(Cl)cc(Cl)c3)o2)nc1` ?
[reply] active

[ask] What did this assay record as the result for `C=C(CN1CC=CCC1)[C@@H]1CC[C@]2(C(=O)OC)CC[C@]3(C)[C@H](CC[C@@H]4[C@@]5(C)CC[C@H](OC(C)=O)C(C)(C)[C@@H]5CC[C@]43C)[C@@H]12` ?
[reply] inactive

[ask] What did this assay record as the result for `CCN(CC)Cc1cc(Nc2ccnc3cc(Cl)ccc23)cc(-c2ccc(Cl)cc2)c1O` ?
[reply] inactive

[ask] What did this assay record as the result for `O=S(=O)(NCC[C@@H]1C[C@H]1c1ccc2ccccc2c1)c1ccc(C(F)(F)F)cc1` ?
[reply] inactive

[ask] What did this assay record as the result for `O=C(Nc1ccc(OS(=O)(=O)c2ccc(F)cc2)cc1)C12CC3CC(CC(C3)C1)C2` ?
[reply] inactive

[ask] What did this assay record as the result for `C=CCN(CCOC(=O)c1ccc([N+](=O)[O-])cc1)CCOC(=O)c1ccc([N+](=O)[O-])cc1` ?
[reply] inactive

[ask] What did this assay record as the result for `Clc1ccc(Nc2ncnc3c2sc2ncccc23)c(Cl)c1` ?
[reply] active

[ask] What did this assay record as the result for `C/C(=C\C(=N\N=C(N)N)c1ccc(Cl)cc1)c1ccc(Cl)cc1` ?
[reply] active

[ask] What did this assay record as the result for `COc1cc2cc(C(=O)Nc3ccccc3)c(N)nc2cc1OC` ?
[reply] active
